tested on: KM12 colon; assay: NCI tumour cell line growth inhibition, 48 h
Decide using TGI: a value greater than or equal to 30 µM is Met, a smaller one is Not met.

compound: Cc1ccc(C2=CC(=O)/C(=C\C(=O)c3ccc(Br)cc3)O2)c(C)c1
cat: Met

compound: C[N+](C)(CCNc1ccc(NCC[N+](C)(C)Cc2ccc([N+](=O)[O-])cc2)c2c1C(=O)c1c(O)ccc(O)c1C2=O)Cc1ccc([N+](=O)[O-])cc1
cat: Not met

compound: Cc1ccc(S(=O)(=O)N/N=C2\C=CC3(CC2)C(=O)N(I)c2ccccc23)cc1 (centres undefined)
cat: Met

compound: Cc1ccc(-c2nc(NCCOCCOCCN)nc(N3CCN(c4ccccn4)CC3)n2)cc1
cat: Met

compound: CC1(C)CC(O)CC(C)(C)N1O
cat: Met

compound: Oc1c(Br)cc2c(c1Br)-c1c(c(O)c3c4c1=NCCC=4C=N3)NCC2
cat: Not met

compound: CCn1cc(C(=O)O)c(=O)c2cc(F)c(N3CCN(S(=O)(=O)c4ccc(Cl)cc4Cl)CC3)cc21
cat: Met

These measurements were taken from PubChem BioAssay (NCI).
